target-or-system: Dopamine beta hydroxylase (Homo sapiens, UniProt P09172)
Construct: 125 μl of plasma; tissue Instituto Português do Sangue Transplantação; host or cells: human plasma from healthy donors
Sequence (P09172 40-617 limits assumed): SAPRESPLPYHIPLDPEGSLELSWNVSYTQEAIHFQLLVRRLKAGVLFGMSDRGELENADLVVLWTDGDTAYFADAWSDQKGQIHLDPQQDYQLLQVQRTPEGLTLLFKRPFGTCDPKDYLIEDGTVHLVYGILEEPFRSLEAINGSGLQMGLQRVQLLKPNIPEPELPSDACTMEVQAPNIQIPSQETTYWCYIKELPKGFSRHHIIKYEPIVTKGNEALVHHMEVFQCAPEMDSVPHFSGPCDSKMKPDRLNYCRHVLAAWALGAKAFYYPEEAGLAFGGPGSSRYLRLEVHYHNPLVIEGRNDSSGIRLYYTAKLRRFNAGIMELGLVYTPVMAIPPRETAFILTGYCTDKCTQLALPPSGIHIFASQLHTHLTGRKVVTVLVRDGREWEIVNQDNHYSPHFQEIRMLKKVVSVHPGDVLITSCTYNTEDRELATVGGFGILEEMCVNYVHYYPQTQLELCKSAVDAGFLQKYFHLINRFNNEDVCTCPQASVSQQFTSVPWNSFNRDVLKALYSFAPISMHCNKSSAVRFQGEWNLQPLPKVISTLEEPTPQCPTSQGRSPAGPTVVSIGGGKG
test-method-notes: Dopamine beta hydroxylase activity in human plasma
Format: biochemical
test-context: inhibitor 0.1 μM
observation-type: Plasma (0.1 μM), activity in % of control

| compound | recorded-value |
| --- | --- |
| CCOC(=O)Cc1[nH]c(=S)n2c1C[C@H](c1c(F)c(F)cc(F)c1F)C2 [Example 63] | 58.3 % of control |
| Cn1c(CC(=O)NC2CCOCC2)c2n(c1=S)C[C@@H](c1c(F)cccc1F)C2 [Example 447] | 33.2 % of control |
| Cn1c(CC(=O)N[C@@H]2CCOC2)c2n(c1=S)C[C@@H](c1c(F)ccc(F)c1F)C2 [Example 244] | 32.9 % of control |

* * *

Test system: noradrenaline (NA) in brain stem
test-method-notes: Catecholamine determination: noradrenaline in brain stem after oral administration
Format: in vivo, Wistar rats
test-context: rat brain stem noradrenaline, 10 mg/kg oral, 15 h post-dose, mean±SD of 4 rats
Counter-ions that a name gives are not always drawn.
observation-type: NA in Br.s (% Control)

| compound | recorded-value |
| --- | --- |
| F.Fc1ccc(Br)cc1[C@]12C[C@H]1c1c(CCN3CCOCC3)[nH]c(=S)n1C2 [Example 191] | 83 ± 10 % Control |
| Cl.Fc1ccc(Cl)cc1[C@]12C[C@H]1c1c(CCN3CCOCC3)[nH]c(=S)n1C2 [Example 174] | 84 ± 8 % Control |
| Fc1ccc(Br)c(F)c1[C@@H]1Cc2c(CCN3CCOCC3)[nH]c(=S)n2C1 [Example 195] | 123 ± 55 % Control |
| Fc1cc(F)c(F)c([C@H]2Cc3c(CCCN4CCCC4)[nH]c(=S)n3C2)c1F [Example 219, hydrochloride] | 92 ± 23 % Control |
| Cl.Cn1c(CCN[C@@H]2CCOC2)c2n(c1=S)C[C@H](c1c(F)ccc(Br)c1F)C2 [Example 256] | 128 ± 64 % Control |
| Cn1c(CC(=O)O)c2n(c1=S)C[C@@]1(c3c(F)ccc(Cl)c3F)C[C@@H]21 [Example 231] | 99 ± 14 % Control |
| CN(C(=O)Cc1c2n(c(=S)n1C)C[C@@]1(c3c(F)ccc(Cl)c3F)C[C@@H]21)C1COC1 [Example 403] | 87 ± 16 % Control |

* * *

target-or-system: Dopamine beta hydroxylase (Homo sapiens, UniProt P09172)
Construct: 125 μl of plasma; tissue Instituto Português do Sangue Transplantação; host or cells: human plasma from healthy donors
test-method-notes: Dopamine beta hydroxylase activity in human plasma
Type: biochemical
test-context: inhibitor 0.1 μM
compounds and their reported Plasma (0.1 μM), activity in % of control
observation-type: Plasma (0.1 μM), activity in % of control

| compound | recorded-value |
| --- | --- |
| Cn1c(CCc2cccnc2)c2n(c1=S)C[C@@H](c1c(F)c(F)cc(F)c1F)C2 | 76.1 % of control |
| CN(C(=O)Cc1[nH]c(=S)n2c1C[C@H](c1c(F)ccc(F)c1F)C2)C1CCOC1 (stereo partly shown) | 54.7 % of control |
| O=C(NCc1[nH]c(=S)n2c1C[C@@H](c1c(F)ccc(Cl)c1F)C2)c1cccnc1 | 7.2 % of control |
| Fc1ccc(Cl)cc1[C@]12C[C@H]1c1c(CCNc3cccnc3)[nH]c(=S)n1C2 | 29.4 % of control |
